System: U251 CNS
Assay explanation: NCI-60 one-dose screen, 48 h (100 = growth as untreated, 0 = no growth, -100 = all killed)
Study conditions: 10 µM unless noted
Method: Growth inhibition of the U251 human tumor cell line is measured as a screen for anti-cancer activity. Cells are grown in 96 well plates and exposed to the test compound for 48 hours. Compounds are tested at a single concentration, which is 10^-5 M for most compounds. The reported endpoint is percent growth (GI% or GIPRCNT), where numbers from 0 - 100% represent growth inhibition, and numbers from -100% - 0 represent cell death. For example, a value of 40 represents 60% growth inhibition. […]
This is part of a sample that, as a whole, favours compounds with a hit. Of some 83,000 tested, about 20% had one in any assay.
Give growth for every item shown.
Hi! Could you send only the number? It should be in %, unit omitted.

*Q* Which growth value is on record for COC(=O)N[C@H]1CCc2c(Cl)c(OC)c(OC)c(OC)c2-c2ccc(SC)c(=O)cc21 ?
*A* 21.5

*Q* Which growth value is on record for COc1ccc(C(C)=O)c(OC)c1 ?
*A* 101

*Q* Which growth value is on record for N#CC1=C(N)Oc2c(cnn2-c2ccc([N+](=O)[O-])cc2[N+](=O)[O-])C1c1ccccc1 (stereo not given) ?
*A* 102

*Q* Which growth value is on record for Cc1cccc(NC(=O)Nc2ccc(-c3ccc4c(c3)NC(=O)/C4=C\c3ccc[nH]3)cc2)c1 ?
*A* 74.7

*Q* Which growth value is on record for CC/C(=C\c1ccc(OC)cc1)C(=O)c1ccc(OC)cc1 ?
*A* 91.7

*Q* Which growth value is on record for O=C(CSc1nc2ccccc2[nH]1)NCc1ccccc1 ?
*A* 106

*Q* Which growth value is on record for COc1ccc(C(=O)Cn2c(C(=O)c3ccccc3)nc3ccccc32)cc1 ?
*A* 25.1

*Q* Which growth value is on record for CCOc1ccc(Nc2nc(-c3ccc4c(c3)NC(=O)CO4)cs2)cc1 ?
*A* 66.8

*Q* Which growth value is on record for N#Cc1cccc(-c2ccc3c(c2)NC(=O)/C3=C\c2ccc[nH]2)c1 ?
*A* 92.8

*Q* Which growth value is on record for COc1cc2nc(-c3ccc(Cl)cc3)cc(OCCCN3CCC(O)CC3)c2cc1OC ?
*A* 54.5

* * *

System: PC-3 prostate
Assay explanation: NCI-60 one-dose screen, 48 h (100 = growth as untreated, 0 = no growth, -100 = all killed)
Study conditions: 10 µM unless noted
Compounds without any hit were thinned out: in the full panel of roughly 83,000, 20% have a hit.
Readout type: growth (%)
Hi! Could you send only the number? It should be in %, unit omitted.

*Q* Which growth value is on record for Clc1ccc(-c2ccc(CNCC3CCNCC3)o2)c(-c2ccccc2)c1 ?
*A* -81.8

*Q* Which growth value is on record for CCOC(=O)CCN(CC(C)C)C(=S)Nc1ccccc1 ?
*A* 105

*Q* Which growth value is on record for Cc1ccc(CNc2c3ccccc3nc3cc(NC(=O)CCN4CCCC4)ccc23)cc1 ?
*A* -0.231

*Q* Which growth value is on record for CCOC(=O)c1cc(C(=O)c2cc(OC)cc(OC)c2)n2ccc3ccccc3c12 ?
*A* 99.4

*Q* Which growth value is on record for COc1ccc(C(=O)Cn2c(C(=O)c3ccccc3)nc3ccccc32)cc1 ?
*A* 29.7

*Q* Which growth value is on record for O=C(/C(=C/c1ccc([N+](=O)[O-])cc1)SCc1ccc(F)cc1)c1ccc(F)cc1 ?
*A* 78.3

*Q* Which growth value is on record for CCCCCN1C=C/C(=C\C(=O)N(C)c2ccccc2Br)c2ccccc21 ?
*A* 92.1

*Q* Which growth value is on record for O=C(CCN1CCCC1)Nc1ccc2c(NCc3ccccc3)c3ccccc3nc2c1 ?
*A* -4.59

*Q* Which growth value is on record for CC1=C(C(=O)/C=C/c2ccc(N(C)C)cc2)C(c2ccccc2)NC(=S)N1 (stereo not given) ?
*A* 98.3

*Q* Which growth value is on record for CCOC(=O)C1=C(CCl)NC(=O)NC1c1ccc2c(c1)OCO2 (stereo not given) ?
*A* 53.9

*Q* Which growth value is on record for COc1cc(/C=N/O)nc(-c2ccccn2)c1 ?
*A* 49.5

*Q* Which growth value is on record for COc1ccc(C(=O)c2cc(C)c(OC)c(C)c2)c(OC)c1N(C(=O)CCl)C(=O)CCl ?
*A* 13.1

*Q* Which growth value is on record for NC(=NCCCOc1ccc(F)cc1)Nc1ccc(I)cc1 ?
*A* 59.1

*Q* Which growth value is on record for COc1ccc(C/C(C)=C(/c2ccc(OCCCN(C)C)cc2)c2ccc(OC(C)=O)cc2)cc1 ?
*A* 79.3

*Q* Which growth value is on record for O=S(=O)(NCCNc1nccc(-c2c(-c3cccc(F)c3)nc3sccn23)n1)c1ccccc1 ?
*A* 33.1

*Q* Which growth value is on record for COc1ccc2[nH]c(O)c(/C=c3/cc4c(c(-c5ccc(F)cc5)n3)=Nc3ccccc3-4)c2c1 ?
*A* 85

*Q* Which growth value is on record for COc1cc2c(=O)n(CCCN(C)C)c3c4cc5c(cc4ccc3c2cc1OC)OCO5 ?
*A* 50.8

*Q* Which growth value is on record for CCCCCCCCOc1ccc(/C=N/Nc2cc(C)nc3ccc(Br)cc23)cc1 ?
*A* 60.8

*Q* Which growth value is on record for O=C(CCN1CCCC1)Nc1ccc2c(Nc3ccc(Br)cc3)c3ccccc3nc2c1 ?
*A* 4.09

*Q* Which growth value is on record for Cc1cc(C(=O)/C=C/c2ccc[nH]2)ccc1-n1ccc(C(F)(F)F)n1 ?
*A* 6.59

*Q* Which growth value is on record for Brc1ccc2[nH]cc(-c3cncn3CCc3ccccc3)c2c1 ?
*A* 53.9

*Q* Which growth value is on record for COc1cc(/C(C)=C(\c2ccc(Cl)cc2)c2ccc(OCCN3CCCC3)cc2)ccc1F ?
*A* 53

*Q* Which growth value is on record for O=Cc1cc2ccccc2nc1Oc1ccc(C(F)(F)F)cc1 ?
*A* 67.8

*Q* Which growth value is on record for OCc1cnccc1NCCCOc1ccccc1 ?
*A* 96

*Q* Which growth value is on record for COc1ccc(C(=O)c2cc(C)c(OC)c(C)c2)c(OC)c1OC(=O)C(Cl)Cl ?
*A* 19.1

*Q* Which growth value is on record for N#CC(C#N)=Cc1cc2ccccc2nc1Oc1ccc(C(F)(F)F)cc1 ?
*A* 51.5

*Q* Which growth value is on record for O=C(/C=C/c1ccc(Cl)cc1)c1ccc(NC(=O)N2CCN(c3cc4c(cc3F)c(=O)c(C(=O)O)cn4C3CC3)CC2)cc1 ?
*A* 97.7

*Q* Which growth value is on record for N#CC1=C(N)Oc2c(ccc3ccccc23)C1c1ccccc1Cl (stereo not given) ?
*A* 20

*Q* Which growth value is on record for CC/C(=C\c1ccc(OC)cc1)C(=O)c1ccc(OC)cc1 ?
*A* 75.7

*Q* Which growth value is on record for COc1ccc(-c2nc3sccn3c2/C=C/C(=O)c2ccc3c(c2)OCO3)cc1 ?
*A* 58.6

*Q* Which growth value is on record for COc1cc2oc(-c3cccc(C(=O)Nc4ccccc4)c3)cc(=O)c2c(O)c1OC ?
*A* 71

*Q* Which growth value is on record for Cc1ccc(/C=N/NC(=O)CSc2nc3ccccc3c(=O)n2Cc2ccc(S(N)(=O)=O)cc2)cc1 ?
*A* 89.3

*Q* Which growth value is on record for O=C(Nc1ccc(-c2ccc3c(c2)NC(=O)/C3=C\c2ccc[nH]2)cc1)NC1CC1 ?
*A* 99.4

*Q* Which growth value is on record for Cn1cc(CC2CC(=O)N(c3ccccc3)C2=O)sc1=NC(=O)c1ccccc1 (stereo not given) ?
*A* 95.5

*Q* Which growth value is on record for Cc1ccc(-c2csc(NC(=O)CSc3nc(-c4ccccc4)cc(=O)[nH]3)n2)cc1 ?
*A* 86.5

*Q* Which growth value is on record for O=C1CC(=O)OC(c2ccc([N+](=O)[O-])cc2)O1 ?
*A* 37

*Q* Which growth value is on record for CC(=O)Nc1ccc(-n2cnc3cc(-c4ccc(OCCN5CCCCC5)cc4)ccc32)cc1 ?
*A* 64.3

*Q* Which growth value is on record for COc1cc(-c2csc(NC(=O)c3cc(F)cc(C(F)(F)F)c3)n2)cc(OC)c1OC ?
*A* 36

*Q* Which growth value is on record for CC(C)c1ccc(Nc2ccc3c(OCCCN4CCN(C)CC4)cccc3n2)cc1 ?
*A* 62.9

*Q* Which growth value is on record for C#CCNC(=O)[C@H](Cc1ccccc1)NC(=O)[C@]12CC[C@@H](C(=C)C)[C@@H]1[C@H]1CC[C@@H]3[C@@]4(C)CCC(=O)C(C)(C)[C@@H]4CC[C@@]3(C)[C@]1(C)CC2 ?
*A* 33
